Measured values drawn from ChEMBL document CHEMBL1961873 for this set.

Biological target: Interleukin-1 receptor-associated kinase 4 (Homo sapiens);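 also: mean inhibition values, from the GSK PKIS dataset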
Settings: at 1 µM
Below, each entry is listed alongside its reported inhibition.
The reply should be a number in %, with the unit left off.

IN: Entry Nc1nc(-c2ccc3c(c2)C(=Cc2cc(Br)c(O)c(Br)c2)C(=O)N3)cs1 : reported inhibition = ?
OUT: -0.15

IN: Entry Cc1ccc(C(=O)NC2CCCCC2)cc1-c1ccc(C(=O)NCC2CC2)cc1 : reported inhibition = ?
OUT: 1.67

IN: Entry CCn1c(-c2nonc2N)nc2c(N3CCCC3)nccc21 : reported inhibition = ?
OUT: -0.28

IN: Entry COc1ccc(-c2ccncc2)cc1C(N)=O : reported inhibition = ?
OUT: 2.34

IN: Entry O=C1NC(=O)C(c2ccccc2Cl)=C1Nc1cccc(O)c1 : reported inhibition = ?
OUT: 1.87

Others:
IN: Entry CS(=O)(=O)CCNCc1ccc(-c2ccc3ncnc(Nc4ccc(OCc5ccccc5)c(Cl)c4)c3c2)o1 : reported inhibition = ?
OUT: 0.86

IN: Entry COC(=O)Nc1nc2cc(Oc3ccc(NC(=O)Nc4cccc(C(=O)O)c4)cc3)ccc2[nH]1 : reported inhibition = ?
OUT: 0.26

====

Below, each entry is listed alongside its reported inhibition.
Biological target: Tyrosine-protein kinase CSK (Homo sapiens) (UniProt P41240);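 also: value given is the averaged percent inhibition of CSK kinase activity, from the GSK PKIS kinase inhibitor set screening panel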
Sequence (P41240 2-450 limits assumed): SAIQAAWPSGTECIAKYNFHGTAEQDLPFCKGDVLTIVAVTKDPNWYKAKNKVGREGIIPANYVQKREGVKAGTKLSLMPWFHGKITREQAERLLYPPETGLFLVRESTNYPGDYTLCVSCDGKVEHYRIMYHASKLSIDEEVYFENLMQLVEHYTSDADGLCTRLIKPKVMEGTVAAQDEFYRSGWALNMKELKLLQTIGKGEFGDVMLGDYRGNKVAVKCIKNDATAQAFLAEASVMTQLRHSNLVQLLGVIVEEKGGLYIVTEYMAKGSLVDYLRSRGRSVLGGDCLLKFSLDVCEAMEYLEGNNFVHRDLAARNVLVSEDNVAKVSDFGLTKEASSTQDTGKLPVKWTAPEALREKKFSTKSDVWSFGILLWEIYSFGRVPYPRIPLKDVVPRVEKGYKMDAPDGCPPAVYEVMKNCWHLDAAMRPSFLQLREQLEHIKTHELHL
Conditions: at 0.1 µM
The reply should be a number in %, with the unit left off.

IN: Entry CS(=O)(=O)CCN(CC#N)Cc1ccc(-c2ccc3ncnc(Nc4ccc(OCc5cccc(F)c5)c(Cl)c4)c3c2)o1 : reported inhibition = ?
OUT: 3.24

IN: Entry Cc1cccc(-c2n[nH]cc2-c2ccc3ncccc3n2)n1 : reported inhibition = ?
OUT: -1.25

IN: Entry CCn1c(-c2nonc2N)nc2c(C#CC(C)(C)O)nc(CN3CCCC3)cc21 : reported inhibition = ?
OUT: -0.07

IN: Entry CCCN1CCC(Oc2cc(Nc3nc(Nc4cccc(F)c4C(N)=O)c4cc[nH]c4n3)c(OC)cc2Cl)CC1 : reported inhibition = ?
OUT: -0.02

IN: Entry Cn1cc(C=C2C(=O)Nc3cccnc32)c2ccccc21 : reported inhibition = ?
OUT: 1.5

Others:
IN: Entry NS(=O)(=O)c1ccc(N/N=C2\C(=O)Nc3ccc(C(=O)NCCc4c[nH]cn4)cc32)cc1 : reported inhibition = ?
OUT: 8.17

IN: Entry O=C1NC(=O)C(N2CCc3ccccc32)=C1c1ccc(Cl)cc1 : reported inhibition = ?
OUT: 3.38

IN: Entry CCCN1CCC=C(c2ccc(Nc3nc(Nc4ccccc4C(N)=O)c4cc[nH]c4n3)c(C)c2)C1 : reported inhibition = ?
OUT: -1.32

IN: Entry Nc1nc(-c2ccc3c(c2)C(=Cc2cc(Br)c(O)c(Br)c2)C(=O)N3)cs1 : reported inhibition = ?
OUT: -4.69

====

Target: Protein kinase C beta type (Homo sapiens);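 also: measured against the PKC-beta2 splice variant, with values reported as mean percent inhibition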
Conditions: at 0.1 µM
Description: GSK_PKIS: PKC-beta2 (splice variant) mean inhibition at 0.1 uM [Nanosyn]
propertyName: inhibition (%)
The reply should be a number in %, with the unit left off.

IN: Entry Fc1cccc(COc2ccc(Nc3ncnc4cc(-c5ccc[nH]5)sc34)cc2Cl)c1 : reported inhibition = ?
OUT: 0.99

IN: Entry Cc1nnc(-c2ccc(C)c(-c3ccc(C(=O)Nc4cccc(C#N)c4)cc3)c2)o1 : reported inhibition = ?
OUT: 1.09

Others:
IN: Entry CS(=O)(=O)Nc1ccc(N/C=C2\C(=O)Nc3ccccc32)cc1 : reported inhibition = ?
OUT: -1.02

IN: Entry CCCN1CCC(Oc2cc(Nc3nc(Nc4cccc(F)c4C(N)=O)c4cc[nH]c4n3)c(OC)cc2Cl)CC1 : reported inhibition = ?
OUT: 1.2
